# credit: patent US20120214862A1

Listing of recorded % Inhibition (human Factor 7 mRNA) by entry.
system: human Factor 7 mRNA; test: Antisense inhibition of human Factor 7 mRNA in HepB3 cells, lipofectin, 50 nM, real-time RT-PCR; format: cell-based; conditions: Example 1; HepB3 cells, lipofectin, 50 nM, ~24 h, relative to untreated control cells
In the oligonucleotide strings, read from the 5' end, every base follows the letter of its sugar. An asterisk marks phosphorothioate; unmarked linkages are phosphodiester. Other units and linkages are bracketed, terminal groups are in braces. A string of capitals states the bases alone. e = 2'-O-(2-methoxyethyl) (MOE); [5mC] = 5-methylcytosine; d = 2'-deoxy (DNA)
Just the number please, in %, no unit attached.

Before answering, review these 5 worked examples.
substance	measurement target	display unit	% Inhibition (human Factor 7 mRNA)
407923 (antisense e[5mC]*eA*eG*eG*eA*d[5mC]*dA*dG*dT*dT*d[5mC]*dG*dA*d[5mC]*dG*e[5mC]*eA*eG*e[5mC]*e[5mC]) [compound 407923]	human Factor 7 mRNA	%	76
407620 (antisense eA*eG*eG*eA*e[5mC]*d[5mC]*dT*dG*d[5mC]*d[5mC]*dA*dT*dG*dG*dA*e[5mC]*eA*e[5mC]*eT*e[5mC]) [compound 407620]	human Factor 7 mRNA	%	79
407897 (antisense eG*e[5mC]*eT*eT*eG*dG*dT*dG*d[5mC]*d[5mC]*d[5mC]*dG*dT*dG*dT*eG*eG*eT*e[5mC]*eA) [compound 407897]	human Factor 7 mRNA	%	77
407887 (antisense e[5mC]*e[5mC]*eA*eG*eG*d[5mC]*dA*dG*d[5mC]*d[5mC]*d[5mC]*dT*dG*dA*dA*eG*e[5mC]*e[5mC]*e[5mC]*eA) [compound 407887]	human Factor 7 mRNA	%	78
407597 (antisense eT*eG*eT*eT*eG*dA*d[5mC]*dA*dT*dT*d[5mC]*d[5mC]*d[5mC]*d[5mC]*dA*eT*eG*eG*eG*eA) [compound 407597]	human Factor 7 mRNA	%	39

We next turn to a different substance, shown below.
Ask | Given 407645 (antisense eG*eA*eG*eA*eG*d[5mC]*dT*dA*dA*dA*d[5mC]*dA*dA*d[5mC]*d[5mC]*eG*e[5mC]*e[5mC]*eT*eT) [compound 407645] , state its recorded % Inhibition (human Factor 7 mRNA).
Reply | 65

----------
tested on: human Factor 7 mRNA; assay: Antisense inhibition of human Factor 7 mRNA in HepB3 cells, lipofectin, 50 nM, real-time RT-PCR; assay type: cell-based; details: HepB3 cells, lipofectin, 50 nM antisense oligonucleotide, approximately 24 hours, primer probe set RTS 2927, relative to untreated control
In the oligonucleotide strings, read from the 5' end, every base follows the letter of its sugar. An asterisk marks phosphorothioate; unmarked linkages are phosphodiester. Other units and linkages are bracketed, terminal groups are in braces. A string of capitals states the bases alone. e = 2'-O-(2-methoxyethyl) (MOE); [5mC] = 5-methylcytosine; d = 2'-deoxy (DNA)
endpoint name: % Inhibition of human Factor 7 mRNA levels (%)
The reply should be a number in %, with the unit left off.

Consider the following illustrative entries.
substance	experimental value
416512 (antisense eG*eA*e[5mC]*eG*eA*d[5mC]*d[5mC]*dT*dT*dT*dG*d[5mC]*dT*dG*dG*eG*eA*eG*eG*eA) [compound 416512]	43
416458 (antisense eG*eG*e[5mC]*eG*eG*dA*dG*d[5mC]*dA*dG*d[5mC]*dG*d[5mC]*dG*dA*eT*eG*eT*e[5mC]*eG) [compound 416458]	29

Ask | Requested read-out: % Inhibition of human Factor 7 mRNA levels. Entry: 407939 (antisense eT*eG*e[5mC]*eA*eG*d[5mC]*d[5mC]*d[5mC]*dG*dG*d[5mC]*dA*d[5mC]*d[5mC]*d[5mC]*eA*eG*e[5mC]*eG*eA) [compound 407939]
Reply | 76

----------
tested on: human Factor 7 mRNA; assay: Inhibition of human Factor 7 mRNA by 2-10-2 MOE shortmers in HepB3 cells, electroporation, 1,000 nM; type: cell-based; conditions: electroporation, 1,000 nM oligonucleotide, approximately 24 hours, relative to untreated control cells
In the oligonucleotide strings, read from the 5' end, every base follows the letter of its sugar. An asterisk marks phosphorothioate; unmarked linkages are phosphodiester. Other units and linkages are bracketed, terminal groups are in braces. A string of capitals states the bases alone. e = 2'-O-(2-methoxyethyl) (MOE); [5mC] = 5-methylcytosine; d = 2'-deoxy (DNA)
Returns one of condition met or condition not met; condition met when % inhibition of human Factor 7 mRNA is >= 10%.

Ask | Hello, I need to know if 435831 (antisense eG*eA*dT*d[5mC]*dT*dT*d[5mC]*dA*d[5mC]*dA*dT*dA*eG*e[5mC]) [compound 435831] has measured % inhibition of human Factor 7 mRNA not below 10%. Thanks!
Reply | condition met

Ask | Lookup 435835 (antisense eT*eT*dA*dT*dT*dT*dG*dG*dG*d[5mC]*dA*dT*eG*eG) [compound 435835]
Reply | condition not met

Ask | How about this substance: 435825 (antisense e[5mC]*eT*dG*dG*dT*dT*dT*dT*dG*dG*dA*dG*eG*eA) [compound 435825]
Reply | condition not met

----------
tested on: human Factor 7 mRNA; test: Antisense inhibition of human Factor 7 mRNA in HepB3 cells, lipofectin, 50 nM, real-time RT-PCR; format: cell-based; settings: Example 1; HepB3 cells, lipofectin, 50 nM, ~24 h, relative to untreated control cells
In the oligonucleotide strings, read from the 5' end, every base follows the letter of its sugar. An asterisk marks phosphorothioate; unmarked linkages are phosphodiester. Other units and linkages are bracketed, terminal groups are in braces. A string of capitals states the bases alone. e = 2'-O-(2-methoxyethyl) (MOE); [5mC] = 5-methylcytosine; d = 2'-deoxy (DNA)
The label depends only on % Inhibition (human Factor 7 mRNA): MET if it is at least 70%, NOT MET if it is smaller.

Completed entries (count: 6):
substance	assigned label
407599 (antisense e[5mC]*e[5mC]*eT*eG*eG*dG*dA*dG*dA*d[5mC]*d[5mC]*dA*dT*dG*dA*eT*eG*eA*eA*eA) [compound 407599]	MET
407908 (antisense e[5mC]*e[5mC]*e[5mC]*e[5mC]*eA*dG*d[5mC]*d[5mC]*dG*d[5mC]*dT*dG*dA*d[5mC]*d[5mC]*eA*eA*eT*eG*eA) [compound 407908]	NOT MET
407938 (antisense e[5mC]*eA*e[5mC]*e[5mC]*e[5mC]*dA*dG*d[5mC]*dG*dA*dA*dG*dG*dG*dA*eG*eA*eA*eA*eT) [compound 407938]	NOT MET
407663 (antisense eT*eT*eG*e[5mC]*eA*dG*dG*d[5mC]*dA*dG*dG*dA*d[5mC]*dT*dG*eG*eT*eG*eG*eT) [compound 407663]	NOT MET
407959 (antisense eG*e[5mC]*eA*eG*eG*dG*dA*dT*dG*dG*d[5mC]*dA*dT*d[5mC]*dG*eA*eG*eT*e[5mC]*e[5mC]) [compound 407959]	NOT MET
407614 (antisense eT*eG*e[5mC]*eA*eG*dT*dA*d[5mC]*dT*dG*d[5mC]*dT*d[5mC]*dA*d[5mC]*eA*eG*e[5mC]*e[5mC]*eG) [compound 407614]	MET

Ask | Has 407621 (antisense eA*e[5mC]*eA*eA*e[5mC]*dA*dG*dG*dA*d[5mC]*d[5mC]*dT*dG*d[5mC]*d[5mC]*eA*eT*eG*eG*eA) [compound 407621] a recorded % Inhibition (human Factor 7 mRNA) greater than or equal to 70%?
Reply | NOT MET

Ask | Likewise for 407890 (antisense e[5mC]*eA*eG*eG*eG*dA*dG*d[5mC]*d[5mC]*d[5mC]*dG*dG*d[5mC]*d[5mC]*dG*e[5mC]*eA*eG*e[5mC]*eT) [compound 407890] ?
Reply | NOT MET

Ask | 407960 (antisense eG*eT*eG*e[5mC]*e[5mC]*d[5mC]*dA*dG*dG*dA*d[5mC]*dG*dG*d[5mC]*d[5mC]*e[5mC]*eT*eG*e[5mC]*eA) [compound 407960] ?
Reply | NOT MET

Ask | Try this substance too: 407625 (antisense eT*eT*eG*eT*e[5mC]*dG*dA*dA*dA*d[5mC]*dA*dG*dT*dG*dG*eG*e[5mC]*e[5mC]*eG*e[5mC]) [compound 407625]
Reply | MET

Ask | Do the same for 407909 (antisense e[5mC]*e[5mC]*eA*eT*e[5mC]*d[5mC]*dG*dA*dG*dT*dA*dG*d[5mC]*d[5mC]*dG*eG*e[5mC]*eA*e[5mC]*eA) [compound 407909] please
Reply | MET

Ask | Likewise for 407906 (antisense eA*e[5mC]*e[5mC]*eA*e[5mC]*dG*dG*dG*d[5mC]*dT*dG*dG*dT*dG*d[5mC]*eA*eG*eG*e[5mC]*eG) [compound 407906] ?
Reply | NOT MET

Ask | Next substance up: 407626 (antisense eT*e[5mC]*eT*eT*eG*dA*dT*dT*dT*dT*dG*dT*d[5mC]*dG*dA*eA*eA*e[5mC]*eA*eG) [compound 407626]
Reply | MET

Ask | Queued: 407607 (antisense eT*eG*eG*eA*eG*d[5mC]*dT*dG*dG*dT*d[5mC]*d[5mC]*dT*dT*dG*e[5mC]*eA*eG*eG*eA) [compound 407607]
Reply | MET

Ask | Record: 407957 (antisense eG*eG*e[5mC]*e[5mC]*eT*dG*dG*dG*dA*dA*d[5mC]*dT*dT*dG*d[5mC]*eA*eT*eT*eT*eA) [compound 407957]
Reply | NOT MET

Ask | Also need 407602 (antisense e[5mC]*eT*eG*e[5mC]*eA*dG*d[5mC]*d[5mC]*dA*dG*dG*d[5mC]*dA*dG*d[5mC]*e[5mC]*e[5mC]*eT*eG*eA) [compound 407602] , thanks.
Reply | MET
